src = patent US20120045393A1

Known EC50 of a selection of molecules
- Test system: LHRH binding sites on human ovarian cancer cells (EFO-27);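 also: Cell-associated radioactivity on confluent EFO-27 monolayers in 96-well plates, measured by microplate scintillation counting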
Non-standard residues stand in square brackets, D forms with d. Residues, ends and D or L forms follow the SMILES beside them. *: point of attachment. DOTA = O=C(O)CN1CCN(CC(=O)O)CCN(CC(=O)*)CCN(CC(=O)O)CC1; Nicotinoyl = O=C(c1cccnc1)*; azaGly = NNC(=O)O; Sar = CNCC(=O)O

{"molecule": "N=C(N)NCCC[C@H](NC(=O)[C@@H](Cc1ccc2ccccc2c1)NC(=O)CN1CCN(CC(=O)O)CCN(CC(=O)O)CCN(CC(=O)O)CC1)C(=O)N[C@@H](Cc1cccnc1)C(=O)N[C@@H](CO)C(=O)N[C@@H](Cc1c[nH]cn1)C(=O)N[C@H](CCCNC(=N)N)C(=O)N[C@@H](Cc1c[nH]c2ccccc12)C(=O)N[C@@H](Cc1ccc(C(=O)c2ccccc2)cc1)C(=O)N1CCC[C@H]1C(=O)NNC(N)=O [compound 3109]", "EC50 (nM)": 730}
{"molecule": "COc1ccccc1CNC(=O)[C@@H]1CCCN1C(=O)[C@H](Cc1ccc(C(=O)c2ccccc2)cc1)NC(=O)[C@H](Cc1c[nH]c2ccccc12)NC(=O)[C@@H](CCCNC(=N)N)NC(=O)[C@H](Cc1c[nH]cn1)NC(=O)[C@H](CO)NC(=O)[C@H](Cc1c[nH]c2ccccc12)NC(=O)[C@H](CCCNC(=N)N)NC(=O)[C@@H](Cc1ccc2ccccc2c1)NC(=O)CN1CCN(CC(=O)O)CCN(CC(=O)O)CCN(CC(=O)O)CC1 [compound 3020]", "EC50 (nM)": 450}
{"molecule": "CN(CC(=O)N[C@@H](Cc1c[nH]cn1)C(=O)N[C@@H](Cc1c[nH]c2ccccc12)C(=O)N[C@@H](CO)C(=O)N[C@@H](Cc1c[nH]cn1)C(=O)N[C@H](CCCCNC(=O)c1cccnc1)C(=O)N[C@@H](Cc1c[nH]c2ccccc12)C(=O)N[C@@H](Cc1ccc(O)cc1)C(=O)N1CCC[C@H]1C(=O)NNC(N)=O)C(=O)CN1CCN(CC(=O)O)CCN(CC(=O)O)CCN(CC(=O)O)CC1 [compound 2674] ({DOTA}-[Sar]HWSH[dK](Nicotinoyl)WYP[azaGly]-NH2)", "EC50 (nM)": 22600}
